TARGET: CDK9 (Homo sapiens)
Construct: Whole cell extracts were prepared using RIPA buffer; endogenous in cells; host or cells: MV-4-11
Sequence (P50750 whole entry): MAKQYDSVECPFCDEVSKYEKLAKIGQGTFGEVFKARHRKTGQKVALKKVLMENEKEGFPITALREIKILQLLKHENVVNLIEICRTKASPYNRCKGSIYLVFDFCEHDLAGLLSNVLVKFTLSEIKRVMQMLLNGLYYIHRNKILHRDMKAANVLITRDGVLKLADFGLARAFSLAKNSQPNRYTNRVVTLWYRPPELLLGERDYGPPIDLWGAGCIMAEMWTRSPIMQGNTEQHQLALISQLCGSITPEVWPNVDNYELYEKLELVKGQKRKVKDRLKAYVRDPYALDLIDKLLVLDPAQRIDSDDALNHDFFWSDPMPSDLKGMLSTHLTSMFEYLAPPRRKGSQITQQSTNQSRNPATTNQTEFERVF
ASSAY: CDK9 degradation assay (Western blot, MV-4-11 cells)
Type: cell-based
CONDITION_PARAMETERS: MV4-11, 1 μM, 6-8 h

{"COMPOUND": "Cn1ncc(-c2nc(N[C@H]3CC[C@H](NCC(=O)NCCCCCNCC(=O)NCc4cc5c(s4)C(=O)N(C4CCC(=O)NC4=O)C5)CC3)ncc2Cl)c1CC1CC1 (stereo partly drawn)", "TARGET": "CDK9 (Homo sapiens)", "Dmax at 1 µM": "50 to 75%"}
{"COMPOUND": "Cn1ncc(-c2nc(N[C@H]3CC[C@H](NCC(=O)NCCCCCNC(=O)NCc4cc5c(s4)C(=O)N(C4CCC(=O)NC4=O)C5)CC3)ncc2F)c1CC1CC1 (stereo partly drawn)", "TARGET": "CDK9 (Homo sapiens)", "Dmax at 1 µM": "≥ 75%"}
{"COMPOUND": "Cn1ncc(-c2nc(N[C@H]3CC[C@H](NCC(=O)NCCCCCNCC(=O)NCc4scc5c4CN(C4CCC(=O)NC4=O)C5=O)CC3)ncc2F)c1CC1CC1 (stereo partly drawn)", "TARGET": "CDK9 (Homo sapiens)", "Dmax at 1 µM": "≥ 75%"}

----------
TARGET: CK1α (Homo sapiens, UniProt P48729+Q96SW2)
Construct: Whole cell extracts were prepared using RIPA buffer; endogenous in cells; host or cells: MV-4-11
Sequence (P48729 whole entry): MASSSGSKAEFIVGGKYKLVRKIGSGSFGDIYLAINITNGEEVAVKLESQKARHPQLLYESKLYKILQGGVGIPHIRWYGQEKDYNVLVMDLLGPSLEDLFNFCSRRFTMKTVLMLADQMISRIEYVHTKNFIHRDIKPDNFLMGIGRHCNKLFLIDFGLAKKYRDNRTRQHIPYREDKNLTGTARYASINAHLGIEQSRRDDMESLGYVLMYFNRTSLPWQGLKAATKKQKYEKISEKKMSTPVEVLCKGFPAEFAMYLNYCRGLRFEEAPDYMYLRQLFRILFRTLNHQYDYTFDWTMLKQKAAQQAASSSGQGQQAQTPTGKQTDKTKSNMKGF
Sequence (Q96SW2 whole entry): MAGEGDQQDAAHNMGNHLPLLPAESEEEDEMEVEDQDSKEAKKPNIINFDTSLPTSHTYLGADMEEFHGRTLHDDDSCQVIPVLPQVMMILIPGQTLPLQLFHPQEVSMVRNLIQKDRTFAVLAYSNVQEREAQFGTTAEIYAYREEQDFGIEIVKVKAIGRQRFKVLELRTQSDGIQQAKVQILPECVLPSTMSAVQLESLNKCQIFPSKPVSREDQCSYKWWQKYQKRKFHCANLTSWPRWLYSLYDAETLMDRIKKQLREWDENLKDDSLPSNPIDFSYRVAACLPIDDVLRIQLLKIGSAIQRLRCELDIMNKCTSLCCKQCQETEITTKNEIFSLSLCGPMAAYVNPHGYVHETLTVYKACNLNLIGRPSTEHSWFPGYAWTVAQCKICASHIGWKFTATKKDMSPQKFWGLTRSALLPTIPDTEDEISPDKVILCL
Sequence (Q16531 whole entry partner): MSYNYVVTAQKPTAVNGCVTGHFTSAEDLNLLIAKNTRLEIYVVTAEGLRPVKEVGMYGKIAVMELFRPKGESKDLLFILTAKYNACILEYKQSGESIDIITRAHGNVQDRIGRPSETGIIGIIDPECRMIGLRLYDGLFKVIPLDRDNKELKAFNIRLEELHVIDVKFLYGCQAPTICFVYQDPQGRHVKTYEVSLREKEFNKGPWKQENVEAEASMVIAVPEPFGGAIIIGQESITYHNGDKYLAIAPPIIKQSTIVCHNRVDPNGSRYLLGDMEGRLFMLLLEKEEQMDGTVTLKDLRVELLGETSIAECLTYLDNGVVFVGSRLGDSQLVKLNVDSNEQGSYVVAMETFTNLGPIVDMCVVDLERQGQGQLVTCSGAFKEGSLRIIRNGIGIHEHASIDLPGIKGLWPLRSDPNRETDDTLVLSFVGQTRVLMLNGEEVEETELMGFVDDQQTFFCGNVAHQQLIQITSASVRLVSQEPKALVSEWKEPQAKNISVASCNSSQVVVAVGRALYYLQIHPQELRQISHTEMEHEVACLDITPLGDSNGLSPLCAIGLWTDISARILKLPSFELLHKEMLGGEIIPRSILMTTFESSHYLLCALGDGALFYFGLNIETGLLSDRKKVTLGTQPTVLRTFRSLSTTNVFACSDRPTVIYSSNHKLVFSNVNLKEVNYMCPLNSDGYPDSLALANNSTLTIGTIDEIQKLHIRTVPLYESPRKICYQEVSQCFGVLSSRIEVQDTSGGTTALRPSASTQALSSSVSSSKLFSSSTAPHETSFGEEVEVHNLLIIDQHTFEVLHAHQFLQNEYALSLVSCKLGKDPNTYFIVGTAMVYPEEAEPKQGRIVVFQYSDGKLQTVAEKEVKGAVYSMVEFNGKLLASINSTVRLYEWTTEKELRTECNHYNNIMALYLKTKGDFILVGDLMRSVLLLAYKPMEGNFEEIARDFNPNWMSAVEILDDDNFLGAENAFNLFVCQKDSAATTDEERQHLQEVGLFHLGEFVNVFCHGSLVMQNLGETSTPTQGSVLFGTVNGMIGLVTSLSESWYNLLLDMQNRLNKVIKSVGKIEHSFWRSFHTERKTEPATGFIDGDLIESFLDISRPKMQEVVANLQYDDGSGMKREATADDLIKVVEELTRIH
ASSAY: CK1α degradation assay (Western blot, MV-4-11 cells)
Assay type: cell-based
CONDITION_PARAMETERS: MV4-11, 6-8 h

{"COMPOUND": "CC(C)(C)c1cnc(CSc2cnc(NC(=O)C3CCN(CC(=O)NCCOCCOCCOCCNCC(=O)NCc4scc5c4CN(C4CCC(=O)NC4=O)C5=O)CC3)s2)o1 (centres unmarked)", "Dmax at 1 µM": "50 to 75%"}
{"COMPOUND": "Cn1ncc(-c2nc(N[C@H]3CC[C@H](NCC(=O)NCCOCCOCCOCCNc4cccc5c4CN(C4CCC(=O)NC4=O)C5=O)CC3)ncc2F)c1CC1CC1 (some centres unmarked)", "Dmax at 1 µM": "25 to 50%"}
{"COMPOUND": "CC(C)(C)c1cnc(CSc2cnc(NC(=O)C3CCN(CC(=O)NCCCCCCCNC(=O)NCc4cc5c(s4)C(=O)N(C4CCC(=O)NC4=O)C5)CC3)s2)o1 (centres unmarked)", "Dmax at 1 µM": "50 to 75%"}
{"COMPOUND": "CC(C)(C)c1cnc(CSc2cnc(NC(=O)C3CCN(CC(=O)NCCOCCNC(=O)NCc4cc5c(s4)C(=O)N(C4CCC(=O)NC4=O)C5)CC3)s2)o1 (centres unmarked)", "Dmax at 1 µM": "25 to 50%"}
{"COMPOUND": "CC(C)(C)c1cnc(CSc2cnc(NC(=O)C3CCN(CC(=O)NCCOCCNC(=O)NCc4cccc5c4CN([C@H]4CCCC(=O)NC4=O)C5=O)CC3)s2)o1", "Dmax at 1 µM": "< 25%"}
{"COMPOUND": "Cn1ncc(-c2ncnc(N[C@H]3CC[C@H](NCCCCCCCCNC(=O)NCc4cc5c(s4)C(=O)N(C4CCC(=O)NC4=O)C5)CC3)n2)c1CC1CC1 (some centres unmarked)", "Dmax at 1 µM": "50 to 75%"}
{"COMPOUND": "CC(C)(C)c1cnc(CSc2cnc(NC(=O)C3CCN(CC(=O)NCCCNCC(=O)NCc4cc5c(s4)C(=O)N(C4CCC(=O)NC4=O)C5)CC3)s2)o1 (centres unmarked)", "Dmax at 1 µM": "25 to 50%"}
{"COMPOUND": "Cn1ncc(-c2nc(N[C@H]3CC[C@H](NCC(=O)NCCCCNCC(=O)NCc4scc5c4CN(C4CCC(=O)NC4=O)C5=O)CC3)ncc2F)c1CC1CC1 (some centres unmarked)", "Dmax at 1 µM": "25 to 50%"}
{"COMPOUND": "CC(C)(C)c1cnc(CSc2cnc(NC(=O)C3CCN(CCOCCOCCOCCOCCNCC(=O)NCc4scc5c4CN(C4CCC(=O)NC4=O)C5=O)CC3)s2)o1 (centres unmarked)", "Dmax at 1 µM": "≥ 75%"}
{"COMPOUND": "Cn1ncc(-c2nc(N[C@H]3CC[C@H](NCC(=O)NCCCCNCC(=O)NCc4cc5c(s4)C(=O)N(C4CCC(=O)NC4=O)C5=O)CC3)ncc2F)c1CC1CC1 (some centres unmarked)", "Dmax at 1 µM": "25 to 50%"}
{"COMPOUND": "CC(C)(C)c1cnc(CSc2cnc(NC(=O)C3CCN(CC(=O)NCCOCCOCCNCC(=O)NCc4cc5c(s4)C(=O)N(C4CCC(=O)NC4=O)C5)CC3)s2)o1 (centres unmarked)", "Dmax at 1 µM": "25 to 50%"}

----------
Tested on: IL-6
ASSAY: IL-6 inhibition assay, LPS-induced PBMCs / CD14+ monocytes (Meso Scale)
Type: cell-based
CONDITION_PARAMETERS: 1 h pretreatment, 100 ng/mL LPS 18-24 h
ENDPOINT_LABEL: inhibition at 1 µM

{"COMPOUND": "CN(CCNCC(=O)NCc1scc2c1CN(C1CCC(=O)NC1=O)C2=O)CCNC(=O)CN1CCC(C(=O)Nc2ncc(SCc3ncc(C(C)(C)C)o3)s2)CC1 (centres unmarked) [Compound 44]", "TARGET": "IL-6", "ENDPOINT_LABEL": "inhibition at 1 µM", "TEST_VALUE": "< 50%"}
{"COMPOUND": "CC(C)(C)c1cnc(CSc2cnc(NC(=O)C3CCN(CC(=O)NCCOCCNC(=O)NCc4cc5c(s4)C(=O)N(C4CCC(=O)NC4=O)C5)CC3)s2)o1 (centres unmarked) [Compound 3]", "TARGET": "IL-6", "ENDPOINT_LABEL": "inhibition at 1 µM", "TEST_VALUE": "> 90%"}
{"COMPOUND": "Cn1ncc(-c2nc(N[C@H]3CC[C@H](NCCOCCOCCOCCNCc4ccc(OCc5scc6c5CN([C@H]5CCC(=O)NC5=O)C6=O)cc4)CC3)ncc2Cl)c1CC1CC1 [Compound 69]", "TARGET": "IL-6", "ENDPOINT_LABEL": "inhibition at 1 µM", "TEST_VALUE": "< 50%"}
{"COMPOUND": "CC(C)(C)c1cnc(CSc2cnc(NC(=O)C3CCN(CC(=O)NCCCCCCCNC(=O)NCc4cc5c(s4)C(=O)N(C4CCC(=O)NC4=O)C5)CC3)s2)o1 (centres unmarked) [Compound 18]", "TARGET": "IL-6", "ENDPOINT_LABEL": "inhibition at 1 µM", "TEST_VALUE": "> 90%"}
{"COMPOUND": "Cn1ncc(-c2nc(N[C@H]3CC[C@H](NCCOCCOCCNCc4ccc(OCc5scc6c5CN([C@H]5CCC(=O)NC5=O)C6=O)cc4)CC3)ncc2Cl)c1CC1CC1 [Compound 67]", "TARGET": "IL-6", "ENDPOINT_LABEL": "inhibition at 1 µM", "TEST_VALUE": "> 90%"}

----------
System: IL-1β
ASSAY: IL-1β inhibition assay, LPS-induced PBMCs / CD14+ monocytes (Meso Scale)
Type: cell-based
CONDITION_PARAMETERS: 1 h pretreatment, 100 ng/mL LPS 18-24 h

{"COMPOUND": "CC(C)(C)c1cnc(CSc2cnc(NC(=O)C3CCN(CCOCCOCCOCCOCCNCC(=O)NCc4scc5c4CN(C4CCC(=O)NC4=O)C5=O)CC3)s2)o1 (centres unmarked)", "TARGET": "IL-1β", "inhibition at 1 µM": "> 90%"}
{"COMPOUND": "CC(C)(C)c1cnc(CSc2cnc(NC(=O)C3CCN(CCCCCCCNCC(=O)NCc4cc5c(s4)C(=O)N(C4CCC(=O)NC4=O)C5)CC3)s2)o1 (centres unmarked)", "TARGET": "IL-1β", "inhibition at 1 µM": "> 90%"}
{"COMPOUND": "CC(C)(C)c1cnc(CSc2cnc(NC(=O)C3CCN(CC(=O)NCCOCCOCCOCCNCC(=O)NCc4cc5c(s4)C(=O)N(C4CCC(=O)NC4=O)C5)CC3)s2)o1 (centres unmarked)", "TARGET": "IL-1β", "inhibition at 1 µM": "> 90%"}
{"COMPOUND": "Cn1ncc(-c2nc(N[C@H]3CC[C@H](NC(=O)CCCCCCNCC(=O)Nc4cccc5c4CN([C@H]4CCCC(=O)NC4=O)C5=O)CC3)ncc2Cl)c1CC1CC1", "TARGET": "IL-1β", "inhibition at 1 µM": "50 to 70%"}
{"COMPOUND": "Cn1ncc(-c2nc(N[C@H]3CC[C@H](NCC(=O)NCCCCNCC(=O)NCc4cc5c(s4)C(=O)N(C4CCC(=O)NC4=O)C5=O)CC3)ncc2Cl)c1CC1CC1 (some centres unmarked)", "TARGET": "IL-1β", "inhibition at 1 µM": "70 to 90%"}

Data provenance is patent US20220153751A1.
